Test system: Rattus norvegicus
Experiment: In vivo agonist activity at angiotensin 2 receptor in ganglion-blocked vagotomized rat assessed as rise in blood pressure at 250 ng/kg/min compound infused for 3 mins
Type: functional
Non-standard residues stand in square brackets, D forms with d. Residues, ends and D or L forms follow the SMILES beside them. Sar = CNCC(=O)O
metric.name: Activity (mmHg)
Numbers only, in mmHg.

[
  {
    "molecule": "CC[C@H](C)[C@H](NC(=O)[C@H](Cc1ccc(O)cc1)NC(=O)[C@@H](NC(=O)[C@H](CCCNC(=N)N)NC(=O)CNC)C(C)C)C(=O)N[C@@H](Cc1cnc[nH]1)C(=O)N1CCC[C@H]1C(=O)N[C@H](C(=O)O)[C@@H](C)OC",
    "observed.result": 13.82
  }
]

Task: Reported Activity, molecule CC[C@H](C)[C@H](NC(=O)[C@H](Cc1ccc(O)cc1)NC(=O)[C@@H](NC(=O)CN(C)C(=O)CNC)C(C)C)C(=O)N[C@@H](Cc1c[nH]cn1)C(=O)N1CCC[C@H]1C(=O)N[C@H](C(=O)O)[C@@H](C)O (H-[Sar][Sar]VYIHPT-OH) : ____
Result: 3.16

FYI, the data here is from ChEMBL document CHEMBL3244213.
